B1: mouse CD160 (30I-154H) with C-terminal …, biotinylated [modified: biotin; biotin] [mouse] / full-length WT mouse HVEM-mCherry, on cells [mouse] (parent complex)
chain 1: IHVTSSASQKGGRLDLTCTLWHKKDEAEGLILFWCKDNPWNCSPETNLEQLRVKRDPETDGITEKSSQLVFTIEQATPSDSGTYQCCARSQKPEIYIHGHFLSVLVTGNHTEIRQRQRSHPDFSH
chain 2: QPSCRQEEFLVGDECCPMCNPGYHVKQVCSEHTGTVCAPCPPQTYTAHANGLSKCLPCGVCDPDMGLLTWQECSSWKDTVCRCIPGYFCENQDGSHCSTCLQHTTCPPGQRVEKRGTHDQDTVCADCLTGTFSLGGTQEECLPWTNCSAFQQEVRRGTNSTDTTCSSQVVYYVVSILLPLVIVGAGIAGFLICTRRHLHTSSVAKELEPFQEQQENTIRFPVTEVGFAETEEETASN

variants of: B1; test: flow cytometry, cell–protein method
Quantity kind: ratio to parent
Numbers only.

INSERT INTO measurements (mut, value) VALUES
  ('chain 2 G34A', 0.1),
  ('chain 2 R5A', 0.2),
  ('chain 2 N50A', 0.1),
  ('chain 2 S30A', 0.9);

Lab note: each variant below needs its ratio to parent filled in.
1. chain 2 L52D
2. chain 2 G34D
3. chain 2 H48D
4. chain 2 G34R

[0.9, 0.1, 1.1, 0.1]

Go through the list and state ratio to parent for each entry.
1. chain 2 K77D
2. chain 2 S98A

[0.6, 1.1]

Provide the reported ratio to parent of each entry below, same order.
1. chain 2 T35A
2. chain 2 S98D
3. chain 2 K26D
4. chain 2 E8A
5. chain 2 L56A

[0.1, 1.1, 0.6, 0.1, 1]

Dear colleague, could you send me ratio to parent for each of the items below? Thanks.
1. chain 2 S30D
2. chain 2 T35D

1. 0.8
2. 0.1

Hi, could you look up ratio to parent for each item in my list?
1. chain 2 V36D
2. chain 2 M18D
3. chain 2 H96D
4. chain 2 S30H
5. chain 2 T99D
6. chain 2 A38D

[0.1, 0.1, 1, 0.6, 1.3, 0.1]

For each of the variants below, state ratio to parent.
1. chain 2 L52A
2. chain 2 A38W
3. chain 2 M18A
4. chain 2 P17A
5. chain 2 R5D
6. chain 2 N50D

1. 0.9
2. 1.1
3. 0.6
4. 0.1
5. 0.1
6. 0.1

For each of the items listed, what is its ratio to parent?
1. chain 2 V36A
2. chain 2 E8R
3. chain 2 G51D
4. chain 2 K77A
5. chain 2 T99A

1: 1; 2: 0.1; 3: 0.3; 4: 1.1; 5: 1.1

Please give ratio to parent, item by item, for the list that follows.
1. chain 2 L56D
2. chain 2 K26A
3. chain 2 A49D
4. chain 2 L52R
5. chain 2 H48R

0.9
0.7
0.7
0.8
1

Values from paper PMC8558838
